System: 186277-243-T-J2-PDC spheroids with HUVEC/MSC, viability
Assay: Anticancer human tumor 186277-243-T-J2-PDC patient-derived colon adenocarcinoma cell line growth inhibition [CLK]; active means viability on the fitted dose curve at most 10% of control; inactive means the rest
Conditions: second compound 1 µM; first compound 0.316 µM
Labels: active, inactive

COMPOUND: C#Cc1c(F)ccc2cc(O)cc(-c3ncc4c(N5CC6CCC(C5)N6)nc(OCC56CCCN5CC(F)C6)nc4c3F)c12 (stereo not given) + CN1CCN(c2cc(C(=O)Nc3cc4cc(-c5cnn(C)c5)ccc4cn3)ccn2)CC1
ASSIGNED_LABEL: active
//
COMPOUND: CCN1CCN(Cc2ccc(Nc3ncc(F)c(-c4cc(F)c5nc(C)n(C(C)C)c5c4)n3)nc2)CC1 + CN1CCN(c2cc(C(=O)Nc3cc4cc(-c5cnn(C)c5)ccc4cn3)ccn2)CC1
ASSIGNED_LABEL: active
//
COMPOUND: COc1ccc([C@@H](O)c2cc(-c3ncnc4cc(N5CCOCC5)ccc34)c(F)cc2Cl)nn1 + CNC(=O)c1ccc(Nc2nc(OC3CCCC3)c3c(-c4ccc5nc(C)oc5c4)c[nH]c3n2)c(OC)c1
ASSIGNED_LABEL: inactive
//
COMPOUND: CC(Nc1ccc2c(c1)OCCn1cc(N3C(=O)OCC3C(F)F)nc1-2)C(N)=O (stereo not given) + CNC(=O)c1ccc(Nc2nc(OC3CCCC3)c3c(-c4ccc5nc(C)oc5c4)c[nH]c3n2)c(OC)c1
ASSIGNED_LABEL: inactive
//
COMPOUND: CCCS(=O)(=O)Nc1ccc(F)c(C(=O)c2c[nH]c3ncc(-c4ccc(Cl)cc4)cc23)c1F + CNC(=O)c1ccc(Nc2nc(OC3CCCC3)c3c(-c4ccc5nc(C)oc5c4)c[nH]c3n2)c(OC)c1
ASSIGNED_LABEL: inactive

* * *

System: 186277-243-T-J2-PDC spheroids with HUVEC/MSC, viability
Test: Anticancer human tumor 186277-243-T-J2-PDC cell line growth inhibition [CLK];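 further: compound exposure lasted seven days before readout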;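 on viability, T/C: 100% = DMSO vehicle control wells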
Conditions: second compound 1 µM; first compound 10 µM; stronger effect = lower value

MOLECULE: O=C(c1cc(Cc2n[nH]c(=O)c3ccccc23)ccc1F)N1CCN(C(=O)C2CC2)CC1 + CN1CCN(c2cc(C(=O)Nc3cc4cc(-c5cnn(C)c5)ccc4cn3)ccn2)CC1
UNIT_ANNOTATION: %
viability, T/C: 0.32
--
MOLECULE: COc1cccc2c1C(=O)c1c(O)c3c(c(O)c1C2=O)CC(O)(C(=O)CO)CC3OC1CC(N)C(O)C(C)O1 (stereo not given) + CNC(=O)c1ccc(Nc2nc(OC3CCCC3)c3c(-c4ccc5nc(C)oc5c4)c[nH]c3n2)c(OC)c1
UNIT_ANNOTATION: %
viability, T/C: 3.37
--
MOLECULE: CC(Nc1ccc2c(c1)OCCn1cc(N3C(=O)OCC3C(F)F)nc1-2)C(N)=O (stereo not given) + CN1CCN(c2cc(C(=O)Nc3cc4cc(-c5cnn(C)c5)ccc4cn3)ccn2)CC1
UNIT_ANNOTATION: %
viability, T/C: 1.48
--
MOLECULE: CC(CO)NC(=O)c1cc(-c2ccc(Cl)cc2)nn(-c2cnn(C)c2)c1=O (stereo not given) + CNC(=O)c1ccc(Nc2nc(OC3CCCC3)c3c(-c4ccc5nc(C)oc5c4)c[nH]c3n2)c(OC)c1
UNIT_ANNOTATION: %
viability, T/C: 36
--
MOLECULE: O=c1[nH]cc(F)c(=O)[nH]1 + CNC(=O)c1ccc(Nc2nc(OC3CCCC3)c3c(-c4ccc5nc(C)oc5c4)c[nH]c3n2)c(OC)c1
UNIT_ANNOTATION: %
viability, T/C: 15

* * *

Test system: 186277-243-T-J2-PDC spheroids with HUVEC/MSC, viability
Test: Anticancer human tumor 186277-243-T-J2-PDC cell line growth inhibition [CLK];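 further: compound exposure lasted seven days before readout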;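 on viability, T/C: 100% = DMSO vehicle control wells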
Settings: second compound 0.1 µM; first compound 0.1 µM; stronger effect = lower value
This listing pairs compounds with measured viability, T/C.
REPORTED_METRIC: viability, T/C (%)

COMPOUND: O=C(c1cc(Cc2n[nH]c(=O)c3ccccc23)ccc1F)N1CCN(C(=O)C2CC2)CC1 + CN1CCN(c2cc(C(=O)Nc3cc4cc(-c5cnn(C)c5)ccc4cn3)ccn2)CC1
ASSAY_VALUE: 82.8

COMPOUND: C=CC(=O)N1CCN(c2nc(=O)n(-c3c(C)ccnc3C(C)C)c3nc(-c4c(O)cccc4F)c(F)cc23)C(C)C1 (stereo not given) + CN1CCN(c2cc(C(=O)Nc3cc4cc(-c5cnn(C)c5)ccc4cn3)ccn2)CC1
ASSAY_VALUE: 81

COMPOUND: C#Cc1c(F)ccc2cc(O)cc(-c3ncc4c(N5CC6CCC(C5)N6)nc(OCC56CCCN5CC(F)C6)nc4c3F)c12 (stereo not given) + CNC(=O)c1ccc(Nc2nc(OC3CCCC3)c3c(-c4ccc5nc(C)oc5c4)c[nH]c3n2)c(OC)c1
ASSAY_VALUE: 20.2

COMPOUND: C=C(F)C(=O)N1CCN(c2nc(OCC3CCCN3C)nc3c2CCN(c2cccc4cccc(Cl)c24)C3)CC1CC#N (stereo not given) + CNC(=O)c1ccc(Nc2nc(OC3CCCC3)c3c(-c4ccc5nc(C)oc5c4)c[nH]c3n2)c(OC)c1
ASSAY_VALUE: 70.6

COMPOUND: CC(CO)NC(=O)c1cc(-c2ccc(Cl)cc2)nn(-c2cnn(C)c2)c1=O (stereo not given) + CN1CCN(c2cc(C(=O)Nc3cc4cc(-c5cnn(C)c5)ccc4cn3)ccn2)CC1
ASSAY_VALUE: 92.2

* * *

System: 186277-243-T-J2-PDC spheroids with HUVEC/MSC, viability
Assay: Anticancer human tumor 186277-243-T-J2-PDC cell line growth inhibition [CLK]; active means viability on the fitted dose curve at most 10% of control; inactive means the rest;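 further: compound exposure lasted seven days before readout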
Conditions: second compound 10 µM; first compound 1 µM
Labels: active, inactive

COMPOUND: C#Cc1c(F)ccc2cc(O)cc(-c3ncc4c(N5CC6CCC(C5)N6)nc(OCC56CCCN5CC(F)C6)nc4c3F)c12 (stereo not drawn) + CN1CCN(c2cc(C(=O)Nc3cc4cc(-c5cnn(C)c5)ccc4cn3)ccn2)CC1
ASSIGNED_LABEL: active
//
COMPOUND: C=C(F)C(=O)N1CCN(c2nc(OCC3CCCN3C)nc3c2CCN(c2cccc4cccc(Cl)c24)C3)CC1CC#N (stereo not drawn) + CNC(=O)c1ccc(Nc2nc(OC3CCCC3)c3c(-c4ccc5nc(C)oc5c4)c[nH]c3n2)c(OC)c1
ASSIGNED_LABEL: inactive
//
COMPOUND: O=C(c1cc(Cc2n[nH]c(=O)c3ccccc23)ccc1F)N1CCN(C(=O)C2CC2)CC1 + CNC(=O)c1ccc(Nc2nc(OC3CCCC3)c3c(-c4ccc5nc(C)oc5c4)c[nH]c3n2)c(OC)c1
ASSIGNED_LABEL: inactive

* * *

Test system: 186277-243-T-J2-PDC spheroids with HUVEC/MSC, viability
Experiment: Anticancer human tumor 186277-243-T-J2-PDC cell line growth inhibition [CLK];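 further: compound exposure lasted seven days before readout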
Conditions: curve of first compound; second compound 1 µM
pIC50: −log10 of the molar value.
This listing pairs molecules with measured pIC50.
REPORTED_METRIC: pIC50

MOLECULE: CC1COCCN1c1cc(C2(S(C)(=N)=O)CC2)nc(-c2ccnc3[nH]ccc23)n1 (stereo not drawn) + CNC(=O)c1ccc(Nc2nc(OC3CCCC3)c3c(-c4ccc5nc(C)oc5c4)c[nH]c3n2)c(OC)c1
ASSAY_VALUE: > 7.50
--
MOLECULE: CC(Nc1ccc2c(c1)OCCn1cc(N3C(=O)OCC3C(F)F)nc1-2)C(N)=O (stereo not drawn) + CNC(=O)c1ccc(Nc2nc(OC3CCCC3)c3c(-c4ccc5nc(C)oc5c4)c[nH]c3n2)c(OC)c1
ASSAY_VALUE: > 7.50
--
MOLECULE: O=C(c1cc(Cc2n[nH]c(=O)c3ccccc23)ccc1F)N1CCN(C(=O)C2CC2)CC1 + CN1CCN(c2cc(C(=O)Nc3cc4cc(-c5cnn(C)c5)ccc4cn3)ccn2)CC1
ASSAY_VALUE: > 7.50
